Value source: ChEMBL document CHEMBL1150351

- test-details: Cytotoxicity against Pgp deficient human LCC6 cells after 72 hrs by sulforhodamine B test
- Type: functional, cell-based
- condition-details: C6, 72 h
Give pIC50 for every item shown.
Worth noting: pIC50 values are minus log10 of concentrations stated in mol/L.

get_value(item= COc1ccccc1CCC(=O)O[C@H]1C(=O)[C@@]2(C)[C@H]([C@H](OC(=O)c3ccccc3)[C@]3(O)C[C@H](OC(=O)[C@H](O)[C@H](C=C(C)C)NC(=O)OC(C)(C)C)C(C)=C1C3(C)C)[C@]1(OC(C)=O)CO[C@@H]1C[C@@H]2O , readout=pIC50) returns 8.82

get_value(item= C/C=C/[C@H](NC(=O)OC(C)(C)C)[C@@H](O)C(=O)O[C@H]1C[C@@]2(O)[C@@H](OC(=O)c3cccc(OC)c3)[C@@H]3[C@]4(OC(C)=O)CO[C@@H]4C[C@H](O)[C@@]3(C)C(=O)[C@H](OC(=O)CC)C(=C1C)C2(C)C , readout=pIC50) returns 8.92

get_value(item= CCC(=O)O[C@H]1C(=O)[C@@]2(C)[C@H]([C@H](OC(=O)c3cccc(Cl)c3)[C@]3(O)C[C@H](OC(=O)[C@H](O)[C@H](C=C(C)C)NC(=O)OC(C)(C)C)C(C)=C1C3(C)C)[C@]1(OC(C)=O)CO[C@@H]1C[C@@H]2O , readout=pIC50) returns 9.10
